Origin of measurements: ChEMBL document CHEMBL4219022

Species on record: Homo sapiens
Test: Induction of CRL4/CRBN ubiquitin ligase-mediated GSPT1 degradation in human DF15 cells expressing pLOC-ePL-tagged GSPT1 assessed as GSPT1 protein remaining at 10 uM after 4 hrs by luminescence based beta-galactosidase enzyme fragmentation complementation assay relative to CC-885
Assay type: cell-based
Hi there, I'd appreciate the recorded Activity for every entry that follows.
Reply numerically in %, unit not repeated.

Q: Using the record for O=C1CCC(N2C(=O)c3ccc(CNC(=O)Nc4ccc(Cl)cc4)cc3C2=O)C(=O)N1 (stereo unspecified) , report its Activity.
Result: 13

Q: Can you share its Activity? I mean this compound: O=C1CCC(N2C(=O)c3ccc(CNC(=O)Nc4ccccc4)cc3C2=O)C(=O)N1 (stereo unspecified)
Result: 34

Q: Query (compound): O=C1CCC(N2Cc3cc(CNC(=O)Nc4ccc(Cl)c(Cl)c4)ccc3C2=O)C(=O)N1 (stereo unspecified) ; field requested: Activity
Result: -3

Q: Item N#Cc1ccc(NC(=O)NCc2ccc3c(c2)CN(C2CCC(=O)NC2=O)C3=O)cc1 (stereo unspecified) has what recorded Activity?
Result: 63

Q: Which Activity value is on record for O=C1CCC(N2C(=O)c3ccc(CNC(=O)Nc4cccc(Cl)c4)cc3C2=O)C(=O)N1 (stereo unspecified) ?
Result: 8

* * *

Organism: Homo sapiens
Assay: Induction of CRL4/CRBN ubiquitin ligase-mediated GSPT1 degradation in human DF15 cells expressing pLOC-ePL-tagged GSPT1 assessed as GSPT1 protein remaining at 10 uM after 4 hrs by luminescence based beta-galactosidase enzyme fragmentation complementation assay relative to CC-885
Type: cell-based
REPORTED_PROPERTY: Activity (%)
Respond with the bare value in %.

Q: I would be grateful if you could share the reported Activity for Cc1ccc(N2CCN(Cc3ccc4c(c3)CN(C3CCC(=O)NC3=O)C4=O)C2=O)cc1Cl (configuration not stated) .
Result: 52

Q: Activity lookup needed for Cc1ccc(N(C)C(=O)N(C)Cc2ccc3c(c2)CN(C2CCC(=O)NC2=O)C3=O)cc1Cl (configuration not stated) , thanks.
Result: 88

Q: Param item = O=C1CCC(N2C(=O)c3ccc(CNC(=O)Nc4ccccc4Cl)cc3C2=O)C(=O)N1 (configuration not stated) ; retrieve measured Activity.
Result: 21

Q: Using the record for O=C1CCC(N2Cc3cc(CN4CCN(c5cccc(Oc6ccccc6)c5)C4=O)ccc3C2=O)C(=O)N1 (configuration not stated) , report its Activity.
Result: 12

Q: I would be grateful if you could share the reported Activity for O=C1CCC(N2Cc3cc(CNC(=O)Nc4cc(Cl)cc(Cl)c4)ccc3C2=O)C(=O)N1 (configuration not stated) .
Result: -6

Q: For Cc1ccc(N(C)C(=O)NCc2ccc3c(c2)CN(C2CCC(=O)NC2=O)C3=O)cc1Cl (configuration not stated) , what is its reported Activity?
Result: 50

Q: // Activity lookup, key: O=C1CCC(N2Cc3cc(CNC(=O)Nc4ccccc4)ccc3C2=O)C(=O)N1 (configuration not stated)
Result: 9

Q: Looking for the measured Activity of O=C1CCC(N2Cc3cc(CNC(=O)Nc4c(Cl)cccc4Cl)ccc3C2=O)C(=O)N1 (configuration not stated) , can you help?
Result: 32

Q: Using the record for O=C1CCC(N2Cc3cc(CNC(=O)Nc4ccc(Cl)cc4)ccc3C2=O)C(=O)N1 (configuration not stated) , report its Activity.
Result: -2

Q: What value of measured Activity is listed for Cc1ccc(NC(=O)N(C)Cc2ccc3c(c2)CN(C2CCC(=O)NC2=O)C3=O)cc1Cl (configuration not stated) ?
Result: 23

Q: Which Activity is reported for this molecule? O=C1CCC(N2Cc3cc(CNC(=O)Nc4ccccc4-c4ccccc4)ccc3C2=O)C(=O)N1 (configuration not stated)
Result: 2

Q: Quick one: Activity for O=C1CCC(N2Cc3cc(CNC(=O)Nc4c(Cl)cc(Cl)cc4Cl)ccc3C2=O)C(=O)N1 (configuration not stated) ?
Result: 13

Q: Which Activity is listed for O=C1CCC(N2Cc3cc(CNC(=O)Nc4ccc(F)cc4)ccc3C2=O)C(=O)N1 (configuration not stated) ?
Result: 5

Q: Name the reported Activity value associated with the molecule Cc1ccc(N2CCCN(Cc3ccc4c(c3)CN(C3CCC(=O)NC3=O)C4=O)C2=O)cc1Cl (configuration not stated)
Result: 82

Q: What Activity value was documented for this molecule, O=C1CCC(N2Cc3cc(CNC(=O)Nc4cccc(Cl)c4)ccc3C2=O)C(=O)N1 (configuration not stated) ?
Result: -6

Q: Quick one: Activity of CN1C(=O)CCC(N2Cc3cc(CNC(=O)Nc4ccc(F)cc4)ccc3C2=O)C1=O (configuration not stated) ?
Result: 65
